Dear all, this message contains pKi results, target or system Human immunodeficiency virus type 1 protease (Human immunodeficiency virus 1).
Would you please state pKi, meaning minus log10 of the concentration in mol/L, as a bare number?

Illustrative cases are given below, each with its answer.
CC(C)C[C@H](NC(=O)OC1CCCC1)[C@H](Cc1ccccc1)n1cc(CN2CCN(c3cccc(C(F)(F)F)c3)CC2)nn1    7.07
Cc1ccc(Cl)cc1N1CCN(Cc2nnn([C@@H](Cc3ccccc3)[C@H](Cc3ccccc3)NC(=O)OC3CCCC3)c2[C@@H](C)O)CC1    7.55

Given the entry "Cc1ccc(C)c(N2CCN(Cc3cn([C@@H](Cc4ccccc4)[C@H](Cc4ccccc4)NC(=O)OC4CCCC4)nn3)CC2)c1" , what pKi was observed with Human immunodeficiency virus type 1 protease (Human immunodeficiency virus 1)?
7.49

Notebook: pull reported pKi for Human immunodeficiency virus type 1 protease (Human immunodeficiency virus 1), entry "Cc1ccc(C)c(N2CCN(Cc3nnn([C@@H](Cc4ccccc4)[C@H](Cc4ccccc4)NC(=O)OC4CCCC4)c3CO)CC2)c1"
7.85

Report pKi for "Cc1ccc(Cl)cc1N1CCN(Cc2nnn([C@@H](Cc3ccccc3)[C@H](Cc3ccccc3)NC(=O)OC3CCCC3)c2CO)CC1" tested on Human immunodeficiency virus type 1 protease (Human immunodeficiency virus 1).
8.10

Lab note: need pKi for "Cc1ccc(C)c(N2CCN(Cc3nnn([C@@H](Cc4ccccc4)[C@H](Cc4ccccc4)NC(=O)OC4CCCC4)c3[C@H](C)O)CC2)c1" on Human immunodeficiency virus type 1 protease (Human immunodeficiency virus 1), anyone have it?
8.00

Tell me reported pKi for "CC[C@@H](O)c1c(CN2CCN(c3cc(C)ccc3C)CC2)nnn1[C@@H](Cc1ccccc1)[C@H](Cc1ccccc1)NC(=O)OC1CCCC1" , tested with Human immunodeficiency virus type 1 protease (Human immunodeficiency virus 1).
7.38
